Entry source: the supplement of paper PMC10567573

B1: MIA2 (parent)
chain: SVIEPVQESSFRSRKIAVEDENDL

variants of: B1; assay: protein stability index of a GFP-peptide fusion (GPS, HEK-293T) (PSI 1-6); higher = more stable; settings: c terminus: a fixed tail appended;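 further: lentivirally expressed fusions sorted by FACS into six bins by GFP to DsRed ratio, PSI derived from sequencing read proportions per bin multiplied by bin number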
Given measured protein stability index, output 1 if it is greater than or equal to 5 and -1 if not.

- sequence_content: "SVIEQVQESSFRSRKIAVEDENDL [P5Q]"
  qualitative_label: 1

Please indicate if the recorded protein stability index for MVIEPVQESSFRSRKIAVEDENDL [S1M] meets or exceeds 5. -1

Please indicate if the recorded protein stability index for SVIEPVQESNFRSRKIAVEDENDL [S10N] meets or exceeds 5. 1

Please indicate if the recorded protein stability index for SVIEPVFESSFRSRKIAVEDENDL [Q7F] meets or exceeds 5. -1
